Value source: patent US8163771B2

# target-of-assay: recombinant human 11 β-HSD1 (Homo sapiens, UniProt P28845)
# Sequence (P28845 whole entry): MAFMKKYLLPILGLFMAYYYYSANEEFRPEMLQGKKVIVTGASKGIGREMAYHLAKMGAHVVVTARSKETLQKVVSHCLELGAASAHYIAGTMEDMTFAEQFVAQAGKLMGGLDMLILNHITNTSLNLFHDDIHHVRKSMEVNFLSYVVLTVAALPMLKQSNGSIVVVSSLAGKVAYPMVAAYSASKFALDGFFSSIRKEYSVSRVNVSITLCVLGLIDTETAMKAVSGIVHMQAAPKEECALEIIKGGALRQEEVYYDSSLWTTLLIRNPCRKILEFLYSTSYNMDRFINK
# assay-method-text: 11 β-HSD1 SPA Assay (Scintillation Proximity Assay)
measured-metric: IC50

Problem: Supply reported IC50 belonging to this compound: CC(C)(C(=O)N[C@H]1C[C@H]2CC[C@@H](C1)N2c1ccc(C(N)=O)cn1)c1ccc(F)c(F)c1
Solution: < 200 nM

Problem: Supply reported IC50 belonging to this compound: CC(C)(Oc1ccc(Cl)cc1Cl)C(=O)N[C@H]1C[C@H]2CC[C@@H](C1)N2c1ccc(C(=O)NC2CCSCC2)cn1
Solution: < 200 nM

Problem: Supply reported IC50 belonging to this compound: CC(C)(Oc1cc(F)c(F)cc1Cl)C(=O)N[C@H]1C[C@H]2CC[C@@H](C1)N2c1ccc(S(C)(=O)=O)cn1
Solution: < 200 nM

Problem: Supply reported IC50 belonging to this compound: CC(C)(Oc1ccc(Cl)cc1Cl)C(=O)NC1CC2CCC(C1)N2c1ncc(NC(=O)CC(F)(F)F)cc1Cl (stereo not drawn)
Solution: < 2000 nM

Problem: Supply reported IC50 belonging to this compound: CC(C)(Oc1cc(F)c(Cl)cc1Cl)C(=O)N[C@H]1C[C@H]2CC[C@@H](C1)N2c1ccc(C(=O)NCC(F)(F)F)cn1
Solution: < 200 nM

Problem: Supply reported IC50 belonging to this compound: CC(C)(Oc1ccc(Cl)cc1)C(=O)N[C@H]1C[C@H]2CC[C@@H](C1)N2c1ccc(S(C)(=O)=O)cc1
Solution: < 2000 nM

Problem: Supply reported IC50 belonging to this compound: O=C(NC1CC1)c1ccc(N2[C@@H]3CC[C@H]2C[C@@H](NC(=O)C2(Oc4ccccc4)CCC2)C3)nc1
Solution: < 200 nM

Problem: Supply reported IC50 belonging to this compound: CC(C)(Oc1ccc(F)c(C(F)(F)F)c1)C(=O)N[C@H]1C[C@H]2CC[C@@H](C1)N2c1ccc(C(N)=O)cn1
Solution: < 200 nM

Problem: Supply reported IC50 belonging to this compound: CC(C)(Oc1c(Cl)cc(F)cc1Cl)C(=O)N[C@H]1C[C@H]2CC[C@@H](C1)N2c1ccc(S(C)(=O)=O)cc1
Solution: < 200 nM

Problem: Supply reported IC50 belonging to this compound: Cc1cc(C(=O)NC2CC2)cnc1N1[C@@H]2CC[C@H]1C[C@@H](NC(=O)C(C)(C)Oc1ccc(Cl)cc1)C2
Solution: < 200 nM

Problem: Supply reported IC50 belonging to this compound: CC(C)(Oc1ccc(Cl)cc1Cl)C(=O)N[C@H]1C[C@H]2CC[C@@H](C1)N2c1ccc(C(=O)NCC(F)(F)F)cc1F
Solution: < 200 nM

Problem: Supply reported IC50 belonging to this compound: CC(C)(Oc1ccc(Cl)cc1Cl)C(=O)NC1CC2CCC(C1)N2c1ccc(C(=O)NC2CC2(F)F)cn1 (stereo not drawn)
Solution: < 200 nM

Problem: Supply reported IC50 belonging to this compound: CC(C)(Oc1ccc(Cl)cc1Cl)C(=O)N[C@H]1C[C@H]2CC[C@@H](C1)N2c1ccc(C(=O)NCCN2CCOCC2)cn1
Solution: < 200 nM

Problem: Supply reported IC50 belonging to this compound: CC(C)(Oc1cc(OCCO)c(Cl)cc1Cl)C(=O)N[C@H]1C[C@H]2CC[C@@H](C1)N2c1ccc(C(=O)NCC(F)(F)F)cn1
Solution: < 200 nM

Problem: Supply reported IC50 belonging to this compound: CC(C)(Oc1ccc(Cl)cc1C(F)(F)F)C(=O)N[C@H]1C[C@H]2CC[C@@H](C1)N2c1ccc(S(C)(=O)=O)cn1
Solution: < 200 nM

Problem: Supply reported IC50 belonging to this compound: CCC(Oc1ccc(Cl)cc1)C(=O)N[C@H]1C[C@H]2CC[C@@H](C1)N2c1ccc(C(=O)NCCOC)cn1 (stereo partly drawn)
Solution: < 2000 nM

Problem: Supply reported IC50 belonging to this compound: CC(C)(Oc1ccc(Cl)cc1Cl)C(=O)N[C@H]1C[C@H]2CC[C@@H](C1)N2c1ccc(C(N)=O)cn1
Solution: < 200 nM

Problem: Supply reported IC50 belonging to this compound: C[C@@H](CO)NC(=O)c1ccc(N2C3CCC2CC(NC(=O)C(C)(C)Oc2ccc(Cl)cc2Cl)C3)nc1 (stereo partly drawn)
Solution: < 200 nM

Problem: Supply reported IC50 belonging to this compound: C[C@H](NC(=O)c1ccc(N2C3CCC2CC(NC(=O)C(C)(C)Oc2ncc(Cl)cc2Cl)C3)nc1)C(F)(F)F (stereo partly drawn)
Solution: < 200 nM

Problem: Supply reported IC50 belonging to this compound: CC(C)(Oc1ccc(Cl)c(Cl)c1)C(=O)N[C@H]1C[C@H]2CC[C@@H](C1)N2c1ccc(S(N)(=O)=O)cn1
Solution: < 200 nM

Problem: Supply reported IC50 belonging to this compound: O=C(NC1CC1)c1ccc(N2[C@@H]3CC[C@H]2C[C@@H](NC(=O)C2(c4ccccc4Cl)CC2)C3)nc1
Solution: < 200 nM

Problem: Supply reported IC50 belonging to this compound: CC(C)(Oc1ccc2ccccc2c1)C(=O)N[C@H]1C[C@H]2CC[C@@H](C1)N2c1ccc(C(=O)NCC(F)(F)F)cn1
Solution: < 200 nM

Problem: Supply reported IC50 belonging to this compound: CC(C)(Oc1ccc(F)cc1F)C(=O)N[C@H]1C[C@H]2CC[C@@H](C1)N2c1ccc(C(=O)NCC(F)F)cn1
Solution: < 200 nM

Problem: Supply reported IC50 belonging to this compound: CC(C)(Oc1cc(C(F)(F)F)ccc1F)C(=O)N[C@H]1C[C@H]2CC[C@@H](C1)N2c1ccc(S(C)(=O)=O)cn1
Solution: < 2000 nM

Problem: Supply reported IC50 belonging to this compound: O=C(NC1CC1)c1ccc(N2C3CCC2CC(NC(=O)C2(c4ccc(Cl)cc4)CCCC2)C3)nc1 (stereo not drawn)
Solution: < 200 nM

Problem: Supply reported IC50 belonging to this compound: CC(C)(Oc1cc(F)ccc1C(F)(F)F)C(=O)N[C@H]1C[C@H]2CC[C@@H](C1)N2c1ccc(S(C)(=O)=O)cn1
Solution: < 200 nM

Problem: Supply reported IC50 belonging to this compound: Cc1ccc(OC(C)(C)C(=O)N[C@H]2C[C@H]3CC[C@@H](C2)N3c2ccc(S(C)(=O)=O)cc2)c(Cl)c1
Solution: < 200 nM

====

# target-of-assay: recombinant human 11 β-HSD1 (Homo sapiens, UniProt P28845)
# assay-method-text: 11 β-HSD1 SPA Assay (Scintillation Proximity Assay)
# Protocol: Inhibition of 11 βHSD1 by test compounds was assessed in vitro by a Scintillation Proximity Assay (SPA). […] The plate was then incubated overnight at room temperature prior to reading on a Microbeta counter. Percent inhibition of each compound was calculated based on the background and the maximal signals. […] Inhibition of 11 β-HSD1 by test compounds was assessed in vitro by a Scintillation Proximity Assay (SPA). […]
pIC50: −log10 of the molar value.
measured-metric: pIC50

Problem: Provide pIC50, system recombinant human 11 β-HSD1 (Homo sapiens, UniProt P28845), entry C[C@@H](NC(=O)c1ccc(N2C3CCC2CC(NC(=O)C(C)(C)Oc2ccc(Cl)cc2C(F)F)C3)nc1)C(F)(F)F (stereo partly shown)
Solution: > 6.70

Problem: Provide pIC50, system recombinant human 11 β-HSD1 (Homo sapiens, UniProt P28845), entry COc1ccc(OC(C)(C)C(=O)N[C@H]2C[C@H]3CC[C@@H](C2)N3c2ccc(S(C)(=O)=O)cc2)c(Cl)c1
Solution: > 6.70

Problem: Provide pIC50, system recombinant human 11 β-HSD1 (Homo sapiens, UniProt P28845), entry CC(C)(Oc1cc(F)ccc1Cl)C(=O)N[C@H]1C[C@H]2CC[C@@H](C1)N2c1ccc(C(=O)NCC(F)(F)F)cn1
Solution: > 6.70

Problem: Provide pIC50, system recombinant human 11 β-HSD1 (Homo sapiens, UniProt P28845), entry CC(C)(Oc1ccc(Cl)cc1C1CCCCC1)C(=O)N[C@H]1C[C@H]2CC[C@@H](C1)N2c1ccc(C(N)=O)cn1
Solution: > 6.70

====

Record form. Attribute: IC50. Fill in for each entry.
# target-of-assay: recombinant human 11 β-HSD1 (Homo sapiens)
# assay-method-text: 11 β-HSD1 SPA Assay (Scintillation Proximity Assay)

Problem: Provide IC50, system recombinant human 11 β-HSD1 (Homo sapiens), entry CC(C)(Oc1ccc(Cl)cc1S(C)(=O)=O)C(=O)N[C@H]1C[C@H]2CC[C@@H](C1)N2c1ccc(C(=O)NCC(F)F)cn1
Solution: < 200 nM

Problem: Provide IC50, system recombinant human 11 β-HSD1 (Homo sapiens), entry C[C@H](NC(=O)c1ccc(N2C3CCC2CC(NC(=O)C(C)(C)Oc2ncc(F)cc2C(F)F)C3)nc1)C(F)(F)F (stereo partly shown)
Solution: < 2000 nM

Problem: Provide IC50, system recombinant human 11 β-HSD1 (Homo sapiens), entry CC(C)(Oc1ccc(Cl)cc1Cl)C(=O)N[C@H]1C[C@H]2CC[C@@H](C1)N2Cc1ccc(C(N)=O)cn1
Solution: < 2000 nM

Problem: Provide IC50, system recombinant human 11 β-HSD1 (Homo sapiens), entry CC(C)(Oc1ccc(Cl)cc1Cl)C(=O)N[C@H]1C[C@H]2CC[C@@H](C1)N2C(=O)c1cccc(C(N)=O)c1
Solution: < 2000 nM

Problem: Provide IC50, system recombinant human 11 β-HSD1 (Homo sapiens), entry CC(C)(Oc1ncc(Cl)cc1F)C(=O)N[C@H]1C[C@H]2CC[C@@H](C1)N2c1ccc(C(=O)NCC(F)F)cn1
Solution: < 200 nM

Problem: Provide IC50, system recombinant human 11 β-HSD1 (Homo sapiens), entry CC(C)(Oc1cc(C(C)(C)O)c(F)cc1Cl)C(=O)N[C@H]1C[C@H]2CC[C@@H](C1)N2c1ccc(C(=O)NCC(F)F)cn1
Solution: < 200 nM

Problem: Provide IC50, system recombinant human 11 β-HSD1 (Homo sapiens), entry CC(C)(Oc1ccc(Cl)cc1Cl)C(=O)N[C@H]1C[C@H]2CC[C@@H](C1)N2c1ccc(C(=O)NCCCn2ccnc2)cn1
Solution: < 200 nM

Problem: Provide IC50, system recombinant human 11 β-HSD1 (Homo sapiens), entry CC(C)(Oc1ccc(Cl)cc1C(F)F)C(=O)N[C@H]1C[C@H]2CC[C@@H](C1)N2c1ccc(S(C)(=O)=O)cn1
Solution: < 200 nM

Problem: Provide IC50, system recombinant human 11 β-HSD1 (Homo sapiens), entry CC(C)(Oc1ncc(C(F)(F)F)cc1Cl)C(=O)N[C@H]1C[C@H]2CC[C@@H](C1)N2c1ccc(C(N)=O)cn1
Solution: < 200 nM

Problem: Provide IC50, system recombinant human 11 β-HSD1 (Homo sapiens), entry CC(C)(Oc1cc(OCC(=O)O)c(Cl)cc1Cl)C(=O)N[C@H]1C[C@H]2CC[C@@H](C1)N2c1ccc(C(=O)NCC(F)(F)F)cn1
Solution: < 200 nM

Problem: Provide IC50, system recombinant human 11 β-HSD1 (Homo sapiens), entry CC(C)(Oc1ccc(F)c(Cl)c1Cl)C(=O)N[C@H]1C[C@H]2CC[C@@H](C1)N2c1ccc(NS(C)(=O)=O)cn1
Solution: < 200 nM

Problem: Provide IC50, system recombinant human 11 β-HSD1 (Homo sapiens), entry CC(C)(Oc1ccc(Cl)cc1Cl)C(=O)N[C@H]1C[C@H]2CC[C@@H](C1)N2c1ccc(NC(=O)C(F)(F)F)cn1
Solution: < 200 nM

Problem: Provide IC50, system recombinant human 11 β-HSD1 (Homo sapiens), entry CC(C)(Oc1ccc(Cl)cc1)C(=O)N[C@H]1C[C@H]2CC[C@@H](C1)N2c1ncc(C(=O)NC2CC2)cn1
Solution: < 200 nM
